Reference source: the RNAGym collection of RNA variant scans (doi:10.1021/acssynbio.7b00057)

B1: Pistol ribozyme (parent)
chain: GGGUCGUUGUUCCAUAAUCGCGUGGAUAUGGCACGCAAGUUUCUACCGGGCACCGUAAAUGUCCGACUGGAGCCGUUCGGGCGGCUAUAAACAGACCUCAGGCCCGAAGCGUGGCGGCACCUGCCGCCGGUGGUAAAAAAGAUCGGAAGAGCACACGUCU

variants of: B1; assay: aptazyme ON/OFF ratio, guanine; higher = stronger switching; co-transcriptional cleavage with and without guanine
MEASURED METRIC: aptazyme ON/OFF ratio

[[record]]
variant_label = "U10G C13A"
measured_metric = "aptazyme ON/OFF ratio"
readout_value = 1.13

[[record]]
variant_label = "U7G U8C G9C U10G U11A C12U C13U"
measured_metric = "aptazyme ON/OFF ratio"
readout_value = 1.03

[[record]]
variant_label = "U7C U8G G9A U10C U11C C12U C13G"
measured_metric = "aptazyme ON/OFF ratio"
readout_value = 1.01

[[record]]
variant_label = "U7G U10A U11C C13G"
measured_metric = "aptazyme ON/OFF ratio"
readout_value = 1.02

[[record]]
variant_label = "U7G G9A U10G U11G C12A"
measured_metric = "aptazyme ON/OFF ratio"
readout_value = 1.1

[[record]]
variant_label = "U7A U11C C12G"
measured_metric = "aptazyme ON/OFF ratio"
readout_value = 1.08

[[record]]
variant_label = "U8G U10G U11A C12G C13A"
measured_metric = "aptazyme ON/OFF ratio"
readout_value = 1.13

[[record]]
variant_label = "U7A U8G U10C U11G C12U C13A"
measured_metric = "aptazyme ON/OFF ratio"
readout_value = 1.26

[[record]]
variant_label = "U7C U8G G9U U10A"
measured_metric = "aptazyme ON/OFF ratio"
readout_value = 1.12

[[record]]
variant_label = "U7G U8G G9C U10A U11C C12G C13G"
measured_metric = "aptazyme ON/OFF ratio"
readout_value = 1.05

[[record]]
variant_label = "U7C U8A G9A U10G U11G C13G"
measured_metric = "aptazyme ON/OFF ratio"
readout_value = 1.05

[[record]]
variant_label = "U7A G9A U10A U11A C12A C13A"
measured_metric = "aptazyme ON/OFF ratio"
readout_value = 1.41

[[record]]
variant_label = "U7A G9C U11C C12U"
measured_metric = "aptazyme ON/OFF ratio"
readout_value = 1.09

[[record]]
variant_label = "U7A U8C G9C U10C C12A C13A"
measured_metric = "aptazyme ON/OFF ratio"
readout_value = 1.03

[[record]]
variant_label = "U7C G9C U11C C12G"
measured_metric = "aptazyme ON/OFF ratio"
readout_value = 1.04

[[record]]
variant_label = "U7C U8G G9A U10C C12A C13A"
measured_metric = "aptazyme ON/OFF ratio"
readout_value = 1.13

[[record]]
variant_label = "U7G U8A G9C U11A C13A"
measured_metric = "aptazyme ON/OFF ratio"
readout_value = 1.05

[[record]]
variant_label = "G9C U11A C12G C13U"
measured_metric = "aptazyme ON/OFF ratio"
readout_value = 1.22

[[record]]
variant_label = "U8C G9C U10G U11G C12A"
measured_metric = "aptazyme ON/OFF ratio"
readout_value = 1.15

[[record]]
variant_label = "U7G U8G G9U U10G U11G C12A C13G"
measured_metric = "aptazyme ON/OFF ratio"
readout_value = 1.1

[[record]]
variant_label = "U7G G9A U10G U11A C12G"
measured_metric = "aptazyme ON/OFF ratio"
readout_value = 1.07

[[record]]
variant_label = "U7G U8A G9C U10G U11A"
measured_metric = "aptazyme ON/OFF ratio"
readout_value = 1.04

